- measurement target: T1, human LTBP1-proTGFβ1 complex (human, UniProt Q14766 873-1507)
- T1 construct: range 873-1507; biotinylated in Octet and MSD-SET; also called hLTBP1-proTGFβ1; hLTBP1
- T1 sequence (Q14766 873-1507 limits assumed, chain 1 of 2): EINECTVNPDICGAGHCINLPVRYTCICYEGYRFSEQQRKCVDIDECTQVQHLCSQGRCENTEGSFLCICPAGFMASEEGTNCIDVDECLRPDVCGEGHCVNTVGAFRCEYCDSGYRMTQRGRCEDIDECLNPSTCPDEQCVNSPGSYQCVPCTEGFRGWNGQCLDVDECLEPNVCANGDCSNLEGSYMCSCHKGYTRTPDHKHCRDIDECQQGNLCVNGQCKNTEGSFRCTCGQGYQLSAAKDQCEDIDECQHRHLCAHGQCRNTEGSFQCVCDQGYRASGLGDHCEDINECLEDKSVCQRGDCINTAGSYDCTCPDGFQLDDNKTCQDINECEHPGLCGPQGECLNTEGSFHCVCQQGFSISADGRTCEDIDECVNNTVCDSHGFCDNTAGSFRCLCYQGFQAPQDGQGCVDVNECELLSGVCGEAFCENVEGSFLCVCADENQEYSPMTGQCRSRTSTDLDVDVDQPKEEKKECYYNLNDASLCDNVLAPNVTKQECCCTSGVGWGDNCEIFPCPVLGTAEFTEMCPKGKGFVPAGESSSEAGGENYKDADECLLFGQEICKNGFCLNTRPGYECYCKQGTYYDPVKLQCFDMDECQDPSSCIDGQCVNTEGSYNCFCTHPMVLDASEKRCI
- T1 sequence (chain, as listed by the source limits assumed, chain 2 of 2): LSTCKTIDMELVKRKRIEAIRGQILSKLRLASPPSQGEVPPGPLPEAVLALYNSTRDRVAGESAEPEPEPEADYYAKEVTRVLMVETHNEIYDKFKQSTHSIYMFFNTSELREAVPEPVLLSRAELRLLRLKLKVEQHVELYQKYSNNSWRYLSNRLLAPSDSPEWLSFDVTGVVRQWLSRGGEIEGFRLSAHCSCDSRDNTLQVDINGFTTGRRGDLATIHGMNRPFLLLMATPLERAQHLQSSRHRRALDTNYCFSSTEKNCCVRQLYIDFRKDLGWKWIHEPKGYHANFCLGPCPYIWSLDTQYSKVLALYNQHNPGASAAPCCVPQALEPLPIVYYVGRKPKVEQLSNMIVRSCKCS
- method notes: MSD-SET, solution equilibrium titration
readout label: Kd (nM)
Record the value in nM, omitting the unit from your answer.

Need Kd of Ab32 (antibody, IgG4, V domains shown) VH: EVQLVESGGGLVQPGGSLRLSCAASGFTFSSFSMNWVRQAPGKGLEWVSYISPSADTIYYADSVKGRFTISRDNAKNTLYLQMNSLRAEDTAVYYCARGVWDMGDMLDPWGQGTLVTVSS VL: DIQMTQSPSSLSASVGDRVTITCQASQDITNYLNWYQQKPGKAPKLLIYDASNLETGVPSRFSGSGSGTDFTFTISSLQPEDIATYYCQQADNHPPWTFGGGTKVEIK , thanks.
0.037

Need Kd of Ab31 (antibody, IgG4, V domains shown) VH: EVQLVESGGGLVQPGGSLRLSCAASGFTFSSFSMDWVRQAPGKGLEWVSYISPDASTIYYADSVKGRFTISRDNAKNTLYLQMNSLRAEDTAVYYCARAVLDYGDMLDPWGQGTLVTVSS VL: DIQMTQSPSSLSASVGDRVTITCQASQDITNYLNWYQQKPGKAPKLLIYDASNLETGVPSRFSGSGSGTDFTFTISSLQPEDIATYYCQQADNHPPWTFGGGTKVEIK , thanks.
0.019

Need Kd of Ab6 (antibody, human IgG4 S228P, kappa, V domains shown) VH: EVQLVESGGGLVQPGGSLRLSCTASGFTFSSFSMDWVRQAPGKGLEWVSYISPSADTIYYADSVKGRFTISRDNAKNTLYLQMNSLRAEDTAVYYCARGVLDYGDMLMPWGQGTLVTVSS VL: DIQMTQSPSSLSASVGDRVTITCQASQDITNYLNWYQQKPGKAPKLLIYDASNLETGVPSRFSGSGSGTDFTFTISSLQPEDIATYYCQQADNHPPWTFGGGTKVEIKR , thanks.
0.018
